System: TK-10 renal
Experiment: NCI tumour cell line growth inhibition, 48 h
Square brackets hold non-standard residues; d marks the D form. Peptide text beside a SMILES is read from it. Phe(4-NO2) = N[CH](Cc1ccc([N+](=O)[O-])cc1)C(=O)O
Overview of reported TGI across a group of compounds:

Example cases with answers are listed next.
| COMPOUND | SYSTEM_NAME | TGI |
| --- | --- | --- |
| C[C@@H]1OC(=O)NN=C1c1ccc(-c2ccc(F)cc2)c(C(F)(F)F)c1 | TK-10 renal | 19.6 µM |
| Fc1ccc2c(c1)cc1ccc3cccc4ccc2c1c34 | TK-10 renal | > 100 µM |
| CCOc1cc(/C=C2\N=C(c3ccccc3)N(c3nc4ccccc4s3)C2=O)ccc1O | TK-10 renal | > 100 µM |
| N.N.NCCCCCN.O=C([O-])CC(=O)[O-].O=C([O-])CC(=O)[O-].[Pt+4].[Pt+4] | TK-10 renal | > 100 µM |
| COC(=O)CCC(NC(=O)C(CCC(=O)OC)NC(=O)C(CCC(=O)OC)NC(=O)C(CCC(=O)OC)NC(=O)C(CCC(=O)OC)NC(=O)C(Cc1ccc([N+](=O)[O-])cc1)NC(=O)C(CCC(=O)OC)NC(=O)C(CCC(=O)OC)NC(=O)C(CCC(=O)OC)NC(=O)C(CCC(=O)OC)NC(=O)C(CCC(=O)OC)NC(C)=O)C(N)=O (stereo unspecified) (Ac-E(OMe)E(OMe)E(OMe)E(OMe)E(OMe)[Phe(4-NO2)]E(OMe)E(OMe)E(OMe)E(OMe)E(OMe)-NH2; configuration not given here) | TK-10 renal | > 100 µM |
| Cc1cc(C)c(O)c(CNCCCNCc2cc(C)cc(C)c2O)c1 | TK-10 renal | 20.6 µM |

query: Value lookup for TGI; key = CC(c1ccccc1)C(O)S(=O)(=O)O (stereo unspecified)
result: > 100 µM

query: Further, for CC(CCC(=O)O)c1ccc(Br)cc1 (stereo unspecified) ?
result: > 100 µM

query: Another: Cc1nn(C(=O)c2ccncc2)c2c1C(c1ccc([N+](=O)[O-])cc1)SC(N)=N2 (stereo unspecified)
result: > 100 µM

query: // query: `O=C1NC(N2CCCCC2)=N/C1=C\c1ccccc1`
result: > 100 µM

query: What about `CO/N=C(\C(=O)[N-][n+]1cnn(CC(=O)O)c1)c1csc(N)n1` ?
result: > 10 µM

query: And for O=[N+]([O-])c1ccc(C2CC3(c4ccccc4)ON=C(c4ccccc4)N3c3ccccc3S2)cc1 (stereo unspecified) ?
result: 7.95 µM

query: Moving on to the next compound: `COc1ccc(C(=O)c2cc(C)c(OC)c(C)c2)c(OC)c1N(C(=O)CCl)C(=O)CCl`
result: > 100 µM

query: Now try COc1c(N2CCN(CN3C(=O)C(=O)c4ccccc43)C(C)C2)c(F)cc2c(=O)c(C(=O)O)cn(C3CC3)c12 (stereo unspecified) .
result: 68.7 µM

query: // query: COC(=O)C1(Cc2ccc(C)cc2)Cc2c(C)cccc2C1=O (stereo unspecified)
result: 86.2 µM

query: Same read-out for `C(/C=C/Nc1ccc(-c2ccccc2)cc1)=Nc1ccc(-c2ccccc2)cc1` ?
result: > 100 µM

query: Please answer likewise for [N-]=[N+]=NC1C2CC3CC(C2)CC1C3 (stereo unspecified)
result: > 100 µM

query: Then CN(C)C1C(=O)C(C(N)=O)=C(O)C2(O)C(=O)C3=C(O)c4c(O)cccc4C(C)(O)C3CC12 (stereo unspecified) ?
result: > 100 µM

query: Next entry: `S=C(S)N1CCN(c2ccccc2)CC1`
result: > 100 µM
